Measured values drawn from the CATMoS acute toxicity set (Mansouri et al. 2021) for this set.

Assay Method Text: GHS categories as the set defines them, by LD50: 1 up to 5, 2 up to 50, 3 up to 300, 4 up to 2000, 5 above 2000 mg/kg
Measurement Conditions: rat; in vivo; po
Would you kindly list GHS category for each of these molecules?
Answers are plain numbers.

# Structure As Smiles, Measured Endpoint, Reported
measured = [
    ("CCCCOC(=O)CC(C)C", "GHS category", 5),
    ("CCCCCCCCC=O", "GHS category", 5),
    ("CC(C)COP(=O)(OCC(C)C)OCC(C)C", "GHS category", 5),
    ("CNc1cnn(-c2cccc(C(F)(F)F)c2)c(=O)c1Cl", "GHS category", 5),
    ("O=S(=O)(O)c1cc(Nc2nc(Nc3ccccc3)nc(Nc3ccccc3)n2)ccc1C=Cc1ccc(Nc2nc(Nc3ccccc3)nc(Nc3ccccc3)n2)cc1S(=O)(=O)O", "GHS category", 5),
    ("O=C1CCCCCCCCCCOCCCCO1", "GHS category", 5),
]

Could you report GHS category for every entry in the following list?
1. CO[C@@H]1[C@@H](O[C@@H]2O[C@H](C)[C@@H](O[C@H]3C[C@@](C)(O)[C@@H](O)[C@H](C)O3)[C@H](N(C)C)[C@H]2O)[C@@H](CC=O)C[C@@H](C)[C@@H](O[C@@H]2CC[C@H](N(C)C)[C@@H](C)O2)C=CC=CC[C@@H](C)OC(=O)C[C@H]1OC(C)=O
2. CCOC(=O)CC#N
3. c1ccc(-c2nc3ccccc3o2)cc1
4. C/C=C(\C)C(=O)OC/C=C(\C)CCC=C(C)C

1. 5
2. 5
3. 5
4. 5

* * *

Assay Method Text: GHS categories as the set defines them, by LD50: 1 up to 5, 2 up to 50, 3 up to 300, 4 up to 2000, 5 above 2000 mg/kg
Measurement Conditions: rat; in vivo; po
From the text: […]The data set underlying the modeling effort for this project was initially compiled by NICEATM and U.S. EPA’s CCTE. Briefly, LD50 data were collected from rat acute oral systemic toxicity tests, including limit tests, ranges/confidence intervals, and discrete LD50 values. The full data set included 21,200 LD50 entries for 15,688 substances. […]
For each record, write down the corresponding GHS category.

List reported GHS category for each of these molecules:
1. CC1(C)[C@@H](O[C@H]2O[C@H](C(=O)O)[C@@H](O)[C@H](O)[C@H]2O[C@@H]2O[C@H](C(=O)O)[C@@H](O)[C@H](O)[C@H]2O)CC[C@]2(C)[C@H]3C(=O)C=C4[C@@H]5C[C@@](C)(C(=O)O)CC[C@]5(C)CC[C@@]4(C)[C@]3(C)CC[C@@H]12
2. C#CCN1C(=O)COc2cc(F)c(N3C(=O)C4=C(CCCC4)C3=O)cc21

5
5

Below are 5 molecules. Give each one its GHS category.
1. O=C(CCc1ccc(O)cc1)Nc1ccccc1C(=O)O
2. Clc1cc(Cl)c2oc(C3(Cn4cncn4)OCCO3)cc2c1
3. CCCCCCOC(=O)C(C)(C)C
4. Cc1cc(C(=O)Nc2cccc(C)c2C)n[nH]1
5. O=C1NCCCN1

5
4
5
5
5

Consider the following items and state reported GHS category for each.
1. CCC(=O)OCC(=O)[C@@]1(OC(=O)CC)[C@@H](C)C[C@H]2[C@@H]3CCC4=CC(=O)C=C[C@]4(C)[C@@]3(Cl)[C@@H](O)C[C@@]21C
2. Nc1nc2c(s1)CC(N)CC2 (configuration not stated)
3. CC1(C)COC(Cn2cncn2)(c2cc3ccccc3o2)OC1
4. CC(C)(C)c1ccc(C(=O)CCCN2CCC(OC(c3ccccc3)c3ccccc3)CC2)cc1
5. CC1CCCCC1

[5, 4, 4, 5, 5]
